Hello, the source for this data is the supplement of paper PMC12613149, in case you need it.

Assay: collision cross section (TIMS, N2 drift gas) of the primary ion; higher = larger gas-phase ion size
Details: ionization mode: ESI+; ion species: [M+H]+
reported-metric: collision cross section (Å²)
Give bare numbers, in Å².

Batch lookup, collision cross section per entry.
1. CCOP(=S)(OCC)SCSP(=S)(OCC)OCC
2. c1ccc2nc3ccccc3cc2c1
3. Cc1nnc(-c2ccccc2)c(=O)n1N
4. O=c1oc2cc(O)ccc2c2oc3cc(O)ccc3c12
5. CC(C)(C)CC(C)(C)c1cc(-n2nc3ccccc3n2)c(O)c(C(C)(C)c2ccccc2)c1
6. C/C=C/C(=O)N(CC)c1ccccc1C
7. CC(C)C(=O)c1ccccc1

RESULT:
1: 176.99; 2: 132.33; 3: 143.85; 4: 156.86; 5: 220.23; 6: 144.88; 7: 128.32

Batch lookup, collision cross section per entry.
1. O=c1c2ccccc2[nH]c2ccccc12
2. CCOCN(C(=O)CCl)c1c(C)cccc1CC
3. Cc1nccc2c1[nH]c1ccccc12

RESULT:
136.53
158.08
136.39
